Data origin, for the record: ChEMBL document CHEMBL2074467

biological target: Solute carrier family 15 member 1 (Homo sapiens, UniProt P46059); experiment: TP_TRANSPORTER: inhibition of Cefixim uptake in Caco-2 cells; format: functional, cell-based
Sequence (P46059 whole entry): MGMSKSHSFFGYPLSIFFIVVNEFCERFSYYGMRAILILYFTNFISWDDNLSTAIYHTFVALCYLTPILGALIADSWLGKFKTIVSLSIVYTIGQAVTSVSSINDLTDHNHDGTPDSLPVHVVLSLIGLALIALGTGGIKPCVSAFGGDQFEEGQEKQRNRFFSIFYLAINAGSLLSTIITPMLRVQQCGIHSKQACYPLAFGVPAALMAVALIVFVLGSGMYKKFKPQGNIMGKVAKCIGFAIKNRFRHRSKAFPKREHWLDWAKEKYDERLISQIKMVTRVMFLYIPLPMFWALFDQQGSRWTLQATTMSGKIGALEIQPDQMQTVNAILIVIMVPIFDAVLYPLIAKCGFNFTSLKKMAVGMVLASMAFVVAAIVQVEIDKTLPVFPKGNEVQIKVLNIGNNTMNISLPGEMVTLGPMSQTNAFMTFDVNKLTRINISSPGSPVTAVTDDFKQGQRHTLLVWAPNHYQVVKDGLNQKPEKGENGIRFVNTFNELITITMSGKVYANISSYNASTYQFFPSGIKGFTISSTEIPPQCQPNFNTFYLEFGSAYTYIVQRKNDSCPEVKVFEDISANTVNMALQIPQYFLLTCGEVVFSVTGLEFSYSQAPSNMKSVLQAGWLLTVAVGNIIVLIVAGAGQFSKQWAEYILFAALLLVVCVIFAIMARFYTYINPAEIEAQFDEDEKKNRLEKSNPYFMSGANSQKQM
Readout: pKi
Numbers only, as −log10 of the molar value.

Entry CC1=C(C(=O)O)N2C(=O)[C@@H](NC(=O)[C@H](N)c3ccc(O)cc3)[C@H]2SC1 [CEFADROXIL] has what pKi?
2.84
